Molecular target: human recombinant 5-HT2c receptor (Homo sapiens, UniProt P28335)
Sequence (P28335 33-458): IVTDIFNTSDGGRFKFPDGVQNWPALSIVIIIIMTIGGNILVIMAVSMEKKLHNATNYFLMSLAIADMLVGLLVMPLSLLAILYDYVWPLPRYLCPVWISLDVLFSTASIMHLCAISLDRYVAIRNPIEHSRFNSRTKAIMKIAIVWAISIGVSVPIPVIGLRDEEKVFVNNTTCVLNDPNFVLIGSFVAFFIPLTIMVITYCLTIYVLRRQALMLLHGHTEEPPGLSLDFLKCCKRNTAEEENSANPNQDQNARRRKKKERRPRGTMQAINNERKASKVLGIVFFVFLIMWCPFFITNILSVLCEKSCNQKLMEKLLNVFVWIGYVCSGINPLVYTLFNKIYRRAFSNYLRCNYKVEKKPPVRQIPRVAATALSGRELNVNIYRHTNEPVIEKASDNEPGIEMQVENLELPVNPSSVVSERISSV
Test: 3H-meselurgine radioligand binding SPA, membranes from Swiss 3T3 cells (Method 2)
Conditions: 3H-meselurgine displacement, Cheng-Prusoff; Swiss 3T3 membranes; read-out: Binding Affinity Ki
Counter-ions that a name gives are not always drawn.
Mark condition met for Ki under 70 nM, condition not met if at or over.

{"Compound": "CN(Cc1ccccc1)c1nc2c(c(N3CCOCC3)n1)CCNCC2", "Class label": "condition not met"}
{"Compound": "c1ccc(Cc2nc3c(c(NCC4CCCO4)n2)CCNCC3)cc1 (stereo not drawn) [Example 19, hydrochloride]", "Class label": "condition met"}
{"Compound": "CC(c1ccccc1)c1ncc2c(n1)CCNCC2 (stereo not drawn)", "Class label": "condition not met"}
{"Compound": "CC(C)(c1ccccc1)c1nc2c(c(N3CCOCC3)n1)CCNCC2", "Class label": "condition not met"}
{"Compound": "COc1nc(C(F)(F)c2ccccc2)nc2c1CCNCC2 [Example 72]", "Class label": "condition not met"}
{"Compound": "C[C@H]1COCCN1c1nc(Cc2ccccc2)nc2c1CCNCC2 [Example 45, hydrochloride]", "Class label": "condition met"}
{"Compound": "OCC1CCN(c2nc(Cc3ccccc3)nc3c2CCNCC3)C1 (stereo not drawn) [Example 42, hydrochloride]", "Class label": "condition not met"}
{"Compound": "c1ccc(C2(c3nc4c(c(N5CCOCC5)n3)CCNCC4)CC2)cc1", "Class label": "condition not met"}
